Source of measurements: patent US11597704B2

biological target: human TLR7 (Homo sapiens); construct: expressed in transfected cells; host or cells: HEK293; experiment: TLR7 NFκB-luc cellular reporter assay in transiently transfected HEK293 cells; format: cell-based; settings: lowest effective concentration; HEK293 cells transfected with wild type TLR7 and NFκB-luc reporter, 6 h incubation
Items are presented alongside their recorded hTLR7-wt (LEC).

Smiles string: CCCC[C@H](CO)Nc1nc(N)nc2cc(F)ccc12
hTLR7-wt (LEC): 29.4 µM

Smiles string: CCCC[C@H](CO)Nc1nc(N)nc2c(Cl)cccc12
hTLR7-wt (LEC): > 25 µM

Smiles string: CCCC[C@H](CO)Nc1nc(N)nc2cc(C)ccc12
hTLR7-wt (LEC): 11.5 µM

Smiles string: CCCC[C@H](CO)Nc1nc(N)nc2cc(C(=O)OC)ccc12
hTLR7-wt (LEC): > 100 µM

Smiles string: CCCC[C@H](CO)Nc1nc(N)nc2c(OC)cccc12
hTLR7-wt (LEC): > 50 µM

Smiles string: CCCC[C@H](CO)Nc1nc(N)nc2cccc(C(F)(F)F)c12
hTLR7-wt (LEC): > 100 µM

====

Biological target: human TLR7 (Homo sapiens, UniProt Q9NYK1)
Construct: expressed in transfected cells; host or cells: HEK293
Sequence (Q9NYK1 27-1049): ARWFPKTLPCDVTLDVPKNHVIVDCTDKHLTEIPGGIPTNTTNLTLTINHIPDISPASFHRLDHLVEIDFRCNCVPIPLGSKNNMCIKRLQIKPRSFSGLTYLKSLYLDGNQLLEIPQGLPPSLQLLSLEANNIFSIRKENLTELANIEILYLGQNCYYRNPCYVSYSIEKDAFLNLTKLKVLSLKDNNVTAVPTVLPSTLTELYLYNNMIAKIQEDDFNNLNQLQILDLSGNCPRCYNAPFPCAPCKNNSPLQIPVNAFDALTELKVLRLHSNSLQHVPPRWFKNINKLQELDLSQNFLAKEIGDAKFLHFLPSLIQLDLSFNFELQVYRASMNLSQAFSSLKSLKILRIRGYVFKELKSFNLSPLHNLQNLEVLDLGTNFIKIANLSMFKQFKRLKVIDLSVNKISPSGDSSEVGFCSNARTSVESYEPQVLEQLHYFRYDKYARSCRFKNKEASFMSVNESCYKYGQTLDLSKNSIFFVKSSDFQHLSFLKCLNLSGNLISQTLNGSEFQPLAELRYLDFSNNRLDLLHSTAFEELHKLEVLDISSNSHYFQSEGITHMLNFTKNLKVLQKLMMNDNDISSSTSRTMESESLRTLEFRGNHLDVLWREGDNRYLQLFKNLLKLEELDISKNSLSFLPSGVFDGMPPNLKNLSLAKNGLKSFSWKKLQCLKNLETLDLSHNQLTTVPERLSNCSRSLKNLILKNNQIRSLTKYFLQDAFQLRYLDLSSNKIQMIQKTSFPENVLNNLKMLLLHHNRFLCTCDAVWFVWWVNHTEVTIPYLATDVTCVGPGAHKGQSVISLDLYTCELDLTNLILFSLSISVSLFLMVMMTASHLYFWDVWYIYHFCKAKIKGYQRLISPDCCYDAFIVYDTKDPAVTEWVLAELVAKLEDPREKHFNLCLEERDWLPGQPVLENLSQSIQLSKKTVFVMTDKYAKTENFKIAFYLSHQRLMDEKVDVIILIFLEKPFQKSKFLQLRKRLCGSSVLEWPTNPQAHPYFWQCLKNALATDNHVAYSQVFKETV
Test: TLR7 NFκB-luc cellular reporter assay in transiently transfected HEK293 cells
Type: cell-based
Settings: lowest effective concentration; HEK293 cells transfected with wild type TLR7 and NFκB-luc reporter, 6 h incubation

Smiles string: CCCC[C@H](COC(=O)C(C)C)Nc1nc(N)nc2c(C)cccc12
Assayed system: human TLR7 (Homo sapiens, UniProt Q9NYK1)
hTLR7-wt (LEC): > 25 µM
//
Smiles string: CCC[C@H](CO)Nc1nc(N)nc2c(C)cccc12
Assayed system: human TLR7 (Homo sapiens, UniProt Q9NYK1)
hTLR7-wt (LEC): > 25 µM
//
Smiles string: CCCC[C@H](CO)Nc1nc(N)nc2cccc(C(=O)NC)c12
Assayed system: human TLR7 (Homo sapiens, UniProt Q9NYK1)
hTLR7-wt (LEC): 2.17 µM
//
Smiles string: CCCC[C@H](CO)Nc1nc(N)nc2cc(C#N)ccc12
Assayed system: human TLR7 (Homo sapiens, UniProt Q9NYK1)
hTLR7-wt (LEC): > 100 µM
//
Smiles string: CCCC[C@H](CO)Nc1nc(N)nc2cccc(F)c12
Assayed system: human TLR7 (Homo sapiens, UniProt Q9NYK1)
hTLR7-wt (LEC): 27.7 µM
//
Smiles string: CCCC[C@H](CO)Nc1nc(N)nc2cccc(Cl)c12
Assayed system: human TLR7 (Homo sapiens, UniProt Q9NYK1)
hTLR7-wt (LEC): > 100 µM
//
Smiles string: CCCC[C@H](CO)Nc1nc(N)nc2c(F)cccc12
Assayed system: human TLR7 (Homo sapiens, UniProt Q9NYK1)
hTLR7-wt (LEC): > 25 µM
//
Smiles string: CCCC[C@H](CO)Nc1nc(N)nc2c(C)cccc12
Assayed system: human TLR7 (Homo sapiens, UniProt Q9NYK1)
hTLR7-wt (LEC): > 25 µM
//
Smiles string: CCCC[C@H](CO)Nc1nc(N)nc2c(F)c(F)ccc12
Assayed system: human TLR7 (Homo sapiens, UniProt Q9NYK1)
hTLR7-wt (LEC): > 100 µM
//
Smiles string: CCCC[C@H](CO)Nc1nc(N)nc2cc(-c3nnco3)ccc12
Assayed system: human TLR7 (Homo sapiens, UniProt Q9NYK1)
hTLR7-wt (LEC): > 25 µM
//
Smiles string: CSCC[C@H](CO)Nc1nc(N)nc2cccc(F)c12
Assayed system: human TLR7 (Homo sapiens, UniProt Q9NYK1)
hTLR7-wt (LEC): > 50 µM
//
Smiles string: CC[C@H](C)[C@H](CO)Nc1nc(N)nc2cccc(F)c12
Assayed system: human TLR7 (Homo sapiens, UniProt Q9NYK1)
hTLR7-wt (LEC): 1.71 µM
//
Smiles string: CCC[C@H](CO)Nc1nc(N)nc2c(F)cccc12
Assayed system: human TLR7 (Homo sapiens, UniProt Q9NYK1)
hTLR7-wt (LEC): > 25 µM
//
Smiles string: CCCC[C@H](CO)Nc1nc(N)nc2cccc(C)c12
Assayed system: human TLR7 (Homo sapiens, UniProt Q9NYK1)
hTLR7-wt (LEC): > 100 µM
//
Smiles string: CCCC[C@H](CO)Nc1nc(N)nc2cc(C(F)(F)F)ccc12
Assayed system: human TLR7 (Homo sapiens, UniProt Q9NYK1)
hTLR7-wt (LEC): 3.36 µM
//
Smiles string: CCCC[C@H](CO)Nc1nc(N)nc2cccc(OC)c12
Assayed system: human TLR7 (Homo sapiens, UniProt Q9NYK1)
hTLR7-wt (LEC): 11.3 µM
//
Smiles string: CCCC[C@H](CO)Nc1nc(N)nc2cccc(C3CC3)c12
Assayed system: human TLR7 (Homo sapiens, UniProt Q9NYK1)
hTLR7-wt (LEC): > 100 µM
//
Smiles string: CCCC[C@H](CO)Nc1nc(N)nc2cc(C(=O)N(C)C)ccc12
Assayed system: human TLR7 (Homo sapiens, UniProt Q9NYK1)
hTLR7-wt (LEC): > 100 µM
//
Smiles string: CCCC[C@H](CO)Nc1nc(N)nc2cc(F)cc(F)c12
Assayed system: human TLR7 (Homo sapiens, UniProt Q9NYK1)
hTLR7-wt (LEC): 6.24 µM
//
Smiles string: CCCC[C@H](CO)Nc1nc(N)nc2c(C)ccc(F)c12
Assayed system: human TLR7 (Homo sapiens, UniProt Q9NYK1)
hTLR7-wt (LEC): > 100 µM
